- test target: RNA-binding protein pos-1 (Caenorhabditis elegans)
- Sequence (G5EF15 whole entry, the tested form may be a part): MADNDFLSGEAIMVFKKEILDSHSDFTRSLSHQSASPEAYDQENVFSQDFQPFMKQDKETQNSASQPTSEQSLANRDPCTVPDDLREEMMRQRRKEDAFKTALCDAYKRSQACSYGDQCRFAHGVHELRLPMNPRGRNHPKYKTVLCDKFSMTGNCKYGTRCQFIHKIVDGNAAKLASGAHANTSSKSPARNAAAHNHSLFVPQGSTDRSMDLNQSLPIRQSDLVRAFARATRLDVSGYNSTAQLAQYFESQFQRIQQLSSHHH
- assay details: inhibitors of POS-1/mex-3 RNA binding, dose response, biochemical, fluorescence polarization (AID 1964);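 note: purified POS-1 fused to maltose binding protein made in E. coli; potency of compounds blocking POS-1 binding to fluorescent RNA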
Calls of active or inactive are those of the source.
What EC50 was measured for each of the following?

INPUT: Consider the compound `Cc1ccc(Sc2ccc(C=C3C(=O)N(C)C(=O)N(C)C3=O)o2)cc1` and give its recorded EC50.
OUTPUT: > 300 µM (not active)

INPUT: Quote EC50 reported for `Cc1cc(O)n2nc(N)c(N=Nc3ccccc3)c2n1` please.
OUTPUT: 37.8 µM (active)

INPUT: Tell me measured EC50 for `Cc1ccc(NC(=O)CN2C(=O)S/C(=C\c3cccn3-c3cccc(C(=O)O)c3)C2=O)cc1C` please.
OUTPUT: > 300 µM (not active)

INPUT: Assign EC50 to the following record: O=C(O)C1Nc2c(cccc2C(F)(F)F)C2C=CCC12 (stereo not drawn)
OUTPUT: 26.7 µM (active)

INPUT: Determine its reported EC50: `O=C(O)c1[nH]c2ccccc2c1C(c1cc(Cl)cc([N+](=O)[O-])c1O)c1c(C(=O)O)[nH]c2ccccc12`
OUTPUT: 14.9 µM (active)

INPUT: Give EC50 for the following compound: `O=c1oc2c3c4c(cc2s1)CCCN4CCC3`
OUTPUT: 28.1 µM (active)

INPUT: Report measured EC50; entry is `COCCN1C(=O)/C(=C/c2c(OC)cc(OC)cc2OC)C(=O)N(c2ccccc2)C1=O`
OUTPUT: 131 µM (active)

INPUT: Using known records, supply EC50 for `O=C1NC(=O)N(CCc2ccccc2)C(=O)/C1=C/NNC(=O)c1ccccc1O`
OUTPUT: 69.9 µM (active)

---

For each entry below, report its AC50 value.
- test target: Adenosylmethionine-8-amino-7-oxononanoate aminotransferase (Mycobacterium tuberculosis, UniProt P9WQ81)
- Sequence (P9WQ81 whole entry): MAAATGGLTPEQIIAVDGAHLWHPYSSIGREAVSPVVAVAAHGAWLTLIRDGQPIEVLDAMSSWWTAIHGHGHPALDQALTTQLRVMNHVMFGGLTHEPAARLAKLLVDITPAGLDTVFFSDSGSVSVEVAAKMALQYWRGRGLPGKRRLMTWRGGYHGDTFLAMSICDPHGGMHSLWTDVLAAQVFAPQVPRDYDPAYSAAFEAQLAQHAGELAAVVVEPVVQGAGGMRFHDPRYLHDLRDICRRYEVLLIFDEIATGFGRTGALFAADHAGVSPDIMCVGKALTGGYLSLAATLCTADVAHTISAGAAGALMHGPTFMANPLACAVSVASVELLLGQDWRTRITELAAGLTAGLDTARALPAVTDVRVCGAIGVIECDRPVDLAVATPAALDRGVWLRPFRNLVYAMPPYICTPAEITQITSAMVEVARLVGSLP
- assay details: Mycobacterium tuberculosis BioA enzyme inhibitor Measured in Biochemical System Using Plate Reader - 2163-02_Inhibitor_Dose_CherryPick_Activity.
- Assay type: functional, Mycobacterium tuberculosis UT205
Active and inactive are the calls of the source.

INPUT: State its AC50 for this compound: COc1ccc(F)cc1C(=O)C1CCCN(C(=O)c2ccc(C(C)=O)s2)C1 (centres undefined)
OUTPUT: 1.06 µM (active)

INPUT: Consider the compound `C[C@@H]1CN([C@H](C)CO)C(=O)c2cc(C#Cc3cccnc3)cnc2O[C@H]1CN(C)S(C)(=O)=O` and give its recorded AC50.
OUTPUT: 3.35 µM (active)

INPUT: Identify AC50 associated with the compound `CC(=O)c1c(C)[nH]c(C(=O)Nc2cccnc2)c1C`
OUTPUT: 3 µM (active)

INPUT: Identify measured AC50 corresponding to `O=C(Nc1cccnc1)c1ccc(Cl)c(Cl)c1`
OUTPUT: 3.94 µM (active)
